B1: C9orf25 (parent)
chain: LARKGSLKNGSMGSPVNQQPKKNN

Variants of: B1
assay_comment: protein stability index of a GFP-peptide fusion (GPS, HEK-293T) (PSI 1-6); higher = more stable;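 also: lentivirally expressed fusions sorted by FACS into six bins by GFP to DsRed ratio, PSI derived from sequencing read proportions per bin multiplied by bin number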
conditions: c terminus: a fixed tail appended
quantity: protein stability index

Here's what some known entries look like.
{"residue_sequence": "LARKGSLKNGSMGSPVNQQPFKNN [K21F]", "protein stability index": 4.07}
{"residue_sequence": "LARKGSLKNGSMGSPVNQQPTKNN [K21T]", "protein stability index": 4.39}
{"residue_sequence": "LARSGSLKNGSMGSPVNQQPKKNN [K4S]", "protein stability index": 4.68}
{"residue_sequence": "LARMGSLKNGSMGSPVNQQPKKNN [K4M]", "protein stability index": 4.62}
{"residue_sequence": "LARKGSLKNGSMGSPMNQQPKKNN [V16M]", "protein stability index": 4.62}

Bench note: what protein stability index did LARKGSLKNKSMGSPVNQQPKKNN [G10K] show?
4.35
